System: CYP3A4/5
Test: in vitro
Details: human, microsomes
Recorded Metric: IC50 at 10 min

Form field IC50 at 10 min, entry OC[C@H]1O[C@@H](OCCc2ccc(O)cc2)[C@H](O)[C@@H](O)[C@@H]1O [Salidroside] : > 50 µM

* * *

Biological target: UniProt:P33261
Sequence (P33261 whole entry): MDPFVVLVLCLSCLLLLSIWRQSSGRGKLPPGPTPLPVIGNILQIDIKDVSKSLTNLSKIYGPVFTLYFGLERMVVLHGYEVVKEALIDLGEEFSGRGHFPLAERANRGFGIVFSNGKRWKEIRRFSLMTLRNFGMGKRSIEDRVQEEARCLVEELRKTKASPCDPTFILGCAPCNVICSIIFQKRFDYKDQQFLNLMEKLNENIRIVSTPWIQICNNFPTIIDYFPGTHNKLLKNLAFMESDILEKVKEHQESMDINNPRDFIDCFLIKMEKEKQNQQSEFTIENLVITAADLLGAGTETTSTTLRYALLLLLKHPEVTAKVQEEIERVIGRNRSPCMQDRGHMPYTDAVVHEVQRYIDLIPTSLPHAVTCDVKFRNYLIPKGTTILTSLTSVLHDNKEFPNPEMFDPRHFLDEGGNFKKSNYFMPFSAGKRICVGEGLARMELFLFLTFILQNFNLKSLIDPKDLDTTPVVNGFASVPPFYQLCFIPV
Experiment: Time-dependent inhibition (IC50 shift) in human liver microsomes
Recorded Metric: IC50

Form field IC50, entry OC[C@H]1O[C@@H](OCCc2ccc(O)cc2)[C@H](O)[C@@H](O)[C@@H]1O [Salidroside] : > 50 µM

* * *

System: CYP2B6
Assay: in vitro
Conditions: human, Mean Fold Induction
Recorded Metric: fold induction at 48 h, 3 µM
Give the value as a plain number.

Form field fold induction at 48 h, 3 µM, entry OC[C@H]1O[C@@H](OCCc2ccc(O)cc2)[C@H](O)[C@@H](O)[C@@H]1O [Salidroside] : 1.2
